- STUDY SYSTEM: CYP2D6 (Homo sapiens, UniProt P10635)
- Construct: P2A self-cleaving peptide (upstream linker from CYP2C9) (N); T2A self-cleaving peptide (linker to HygR) (C)
- Sequence (P10635 whole entry): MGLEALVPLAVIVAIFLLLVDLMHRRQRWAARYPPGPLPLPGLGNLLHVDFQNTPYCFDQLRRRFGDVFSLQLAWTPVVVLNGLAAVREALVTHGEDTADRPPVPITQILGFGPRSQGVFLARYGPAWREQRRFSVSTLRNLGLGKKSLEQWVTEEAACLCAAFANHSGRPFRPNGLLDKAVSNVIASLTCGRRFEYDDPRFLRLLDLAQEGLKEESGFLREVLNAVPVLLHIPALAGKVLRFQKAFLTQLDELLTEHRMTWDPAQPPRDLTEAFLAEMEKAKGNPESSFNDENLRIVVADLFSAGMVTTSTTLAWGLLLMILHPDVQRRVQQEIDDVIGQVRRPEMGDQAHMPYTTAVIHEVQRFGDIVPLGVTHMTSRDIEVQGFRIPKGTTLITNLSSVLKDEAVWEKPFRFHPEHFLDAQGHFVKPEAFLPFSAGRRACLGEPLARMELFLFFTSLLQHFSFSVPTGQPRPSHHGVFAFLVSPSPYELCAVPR
- EXPERIMENT: CYP2D6 inhibition in CYPs–UGT1A1 KI-HepG2 cells (1′-hydroxy bufuralol formation, HPLC)
- CONDITION SET: substrate 1 μM bufuralol, inhibitor 0.03-10 μM, 30 min preincubation, 360 min incubation
ASSAY ENDPOINT: pIC50
Give bare numbers, as −log10 of the molar value.

Return the recorded pIC50 value; entry: CN(C/C=C/C#CC(C)(C)C)Cc1cccc2ccccc12 [terbinafine] 7.20
